# Assayed system: cis pT231-tau (P-tau peptide, pure cis or cis-locked)
# Protocol description: Biacore assay of binding affinity of humanized cis mAb variants
Quantity name: Kd (nM)

HT10: humanized cis-pThr231-tau mAb; heavy chain variable domain SEQ ID NO: 26, light chain variable domain SEQ ID NO: 19 (antibody, V domains shown) VH: QVQLVQSGAEVKKPGASVKMSCKASGYTFTSYWIHWVKQRPGQGLEWIGVIDPSDSYTRYNQKFKGRATLTVDTSASTAYMELSSLRSEDTAVYYCTTWEVDYWGQGTLVTVSS VL: DVVMTQSPLSLPVTLGQPASISCRSSQSLVHSDGNTYLHWYLQKPGQSPQLLIYKVSNRFSGVPDRFSGSGSGTDFTLKISRVEAEDVGVYYCSQSTHVPWTFGGGTKVEIK ... 1.77
